IC50: recorded values
# ASSAYED TARGET: human recombinant ETA receptors (Homo sapiens)
# Construct: expressed in transfected cells; host or cells: CHO cells (microsomal membranes)
# Sequence (P25101 21-427): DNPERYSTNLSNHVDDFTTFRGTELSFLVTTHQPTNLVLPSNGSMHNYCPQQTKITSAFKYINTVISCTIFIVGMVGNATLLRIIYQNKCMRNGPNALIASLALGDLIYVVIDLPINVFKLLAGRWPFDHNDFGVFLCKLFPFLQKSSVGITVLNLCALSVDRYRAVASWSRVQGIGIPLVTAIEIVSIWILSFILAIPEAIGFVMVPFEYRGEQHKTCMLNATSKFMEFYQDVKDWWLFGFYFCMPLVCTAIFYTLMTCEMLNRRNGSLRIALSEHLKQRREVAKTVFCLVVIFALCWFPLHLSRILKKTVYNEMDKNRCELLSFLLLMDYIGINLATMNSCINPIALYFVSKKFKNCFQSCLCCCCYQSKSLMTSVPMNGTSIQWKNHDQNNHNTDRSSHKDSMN
# PROTOCOL DETAILS: Inhibition of endothelin binding to membranes from CHO cells carrying human ET receptors (ETA)
Number in nM, nothing else.

| STRUCTURE | IC50 [nM] |
| --- | --- |
| COc1ccccc1Oc1c(NS(=O)(=O)c2ccc(C(C)C)cn2)nc(-c2ncccn2)nc1OCCNS(=O)(=O)c1cccs1 | 477 |
| CCCCS(=O)(=O)NCCOc1nc(-c2ncccn2)nc(NS(=O)(=O)c2ccc(C(C)(C)C)cc2)c1Oc1ccccc1OC | 1100 |
| COc1ccccc1Oc1c(NS(=O)(=O)c2ccc(C(C)C)cn2)nc(-c2ccncc2)nc1OCCNS(=O)(=O)C(F)(F)F | 531 |
| COc1ccccc1Oc1c(NS(=O)(=O)c2ccc(C(C)(C)C)cc2)nc(-c2ncccn2)nc1OCCNS(=O)(=O)C(F)(F)F | 5560 |
| COc1ccccc1Oc1c(NS(=O)(=O)c2ccc(C)cn2)nc(N2CCOCC2)nc1OCCNS(=O)(=O)c1ccccc1 | 1620 |

**Query** Look up IC50: CCS(=O)(=O)NCCOc1nc(-c2ccncc2)nc(NS(=O)(=O)c2ccc(C(C)C)cn2)c1Oc1ccccc1OC
**Result** 233

**Query** Look up IC50: CCS(=O)(=O)NCCCOc1nc(C2CC2)nc(NS(=O)(=O)c2ccc(C(C)(C)C)cc2)c1Oc1ccccc1OC
**Result** 37

**Query** Look up IC50: COc1ccccc1Oc1c(NS(=O)(=O)c2ccc(C(C)(C)C)cc2)ncnc1OCCNS(=O)(=O)c1cccs1
**Result** 1250

Where do these numbers come from? They come from patent US6596719B1.
